# Test system: PC3-PIP tumor model
# Design: species or system mice
# study-conditions: mouse, in vivo
Numbered stars: 1 amine (or outer) side, 2 acyl side, 3 side chain; on linkers, the order of the positions; unused ones are H or OH. Bridge positions count the residues as written; N and C are the ends. Square brackets hold non-standard residues; d marks the D form. Side chains are listed from the residue outwards. Peptide text beside a SMILES is read from it. * marks the point of attachment. X2 = O=C(O)CN1CCN(CC(=O)O)CCN([C@H](CCC(=O)*)C(=O)O)CCN(CC(=O)O)CC1; DOTA = O=C(O)CN1CCN(CC(=O)O)CCN(CC(=O)*)CCN(CC(=O)O)CC1; Phe(3-Cl) = N[C@@H](Cc1cccc(Cl)c1)C(=O)O; Phe(4-Cl) = N[C@@H](Cc1ccc(Cl)cc1)C(=O)O; Ethylenediamine = C(CN[*:2])N[*:1]; X1 = O=C(CC1CCN([*:1])CC1)[*:2]; Cit = NC(=O)NCCC[C@H](N)C(=O)O; Tle = CC(C)(C)[C@H](N)C(=O)O; Propanoyl(3-OH) = O=C(CCO)*; 4Amb = NCc1ccc(C(=O)O)cc1; AEEA = NCCOCCOCC(=O)O; Aib = CC(C)(N)C(=O)O
Collected Tumor AUC values appear next to each entry.
Field: numeric (% ID/g*h). Do not append units.

Below: 8 compounds and their reported Tumor AUC.
- compound: "C[C@@H](O)[C@H](NC(=O)[C@@H](NC(=O)[C@@H]1CSSC[C@H](NC(=O)[C@H](Cc2ccc(Cl)cc2)NC(=O)C(C)(C)NC(=O)[C@@H](NC(=O)CN2CCN(CC(=O)O)CCN(CC(=O)O)CCN(CC(=O)O)CC2)[C@@H](C)O)C(=O)N[C@@H](CCCCN)C(=O)N[C@@H](CCCNC(=N)N)C(=O)NC(C)(C)C(=O)N[C@@H](CC(N)=O)C(=O)N1)C(C)(C)C)C(N)=O [PSM-0573] ({DOTA}-T[Aib][Phe(4-Cl)]CKR[Aib]NC[Tle]T-NH2; disulfide 4-9)"
  value-unit: "% ID/g*h"
  Tumor AUC: 160
- compound: "CC(=O)N[C@H](C(=O)NC(C)(C)C(=O)N[C@@H](Cc1cccc(Cl)c1)C(=O)N[C@H]1CSSC[C@@H](C(=O)N[C@H](C(=O)N[C@H](C(N)=O)[C@@H](C)O)C(C)(C)C)NC(=O)[C@H](CC(N)=O)NC(=O)[C@H](CCCCNC(=O)COCCOCCNC(=O)CN2CCN(CC(=O)O)CCN(CC(=O)O)CCN(CC(=O)O)CC2)NC(=O)[C@H](CCCNC(=N)N)NC(=O)[C@H](CCCCN)NC1=O)[C@@H](C)O [PSM-0243] (Ac-T[Aib][Phe(3-Cl)]CKRK([AEEA-DOTA])NC[Tle]T-NH2; disulfide 4-9)"
  value-unit: "% ID/g*h"
  Tumor AUC: 130
- compound: "C[C@@H](O)[C@H](NC(=O)[C@@H](NC(=O)[C@@H]1CSSC[C@H](NC(=O)[C@H](Cc2ccc(Cl)cc2)NC(=O)C(C)(C)NC(=O)CCO)C(=O)N[C@@H](CCCCN)C(=O)N[C@@H](CCCNC(=N)N)C(=O)NC(C)(C)C(=O)N[C@@H](CC(N)=O)C(=O)N1)C(C)(C)C)C(=O)N[C@H](CCCCNC(=O)CN1CCN(CC(=O)O)CCN(CC(=O)O)CCN(CC(=O)O)CC1)C(N)=O [PSM-0267] ({Propanoyl(3-OH)}-[Aib][Phe(4-Cl)]CKR[Aib]NC[Tle]T[dK](DOTA)-NH2; disulfide 3-8)"
  value-unit: "% ID/g*h"
  Tumor AUC: 170
- compound: "C[C@@H](O)[C@H](NC(=O)[C@@H](NC(=O)[C@@H]1CSSC[C@H](NC(=O)[C@H](Cc2ccc(Cl)cc2)NC(=O)C(C)(C)NC(=O)[C@@H](NC(=O)CC2CCN(C(=O)CN3CCN(CC(=O)O)CCN(CC(=O)O)CCN(CC(=O)O)CC3)CC2)[C@@H](C)O)C(=O)N[C@@H](CCCCN)C(=O)N[C@@H](CCCNC(=N)N)C(=O)N[C@@H](CCC(=O)O)C(=O)N[C@@H](CC(N)=O)C(=O)N1)C(C)(C)C)C(N)=O [PSM-0416] ({DOTA}-[X1]T[Aib][Phe(4-Cl)]CKRENC[Tle]T-NH2; disulfide 5-10)"
  value-unit: "% ID/g*h"
  Tumor AUC: 170
- compound: "CC(C)(NC(=O)c1ccc(CNC(=O)CN2CCN(CC(=O)O)CCN(CC(=O)O)CCN(CC(=O)O)CC2)cc1)C(=O)N[C@@H](Cc1ccc(Cl)cc1)C(=O)N[C@H]1CSSC[C@@H](C(=O)N[C@H](C(=O)NCCN)C(C)(C)C)NC(=O)[C@H](CC(N)=O)NC(=O)C(C)(C)NC(=O)[C@H](CCCNC(=N)N)NC(=O)[C@H](CCCCN)NC1=O [PSM-0273] ({DOTA-4Amb}-[Aib][Phe(4-Cl)]CKR[Aib]NC[Tle]-Ethylenediamine; disulfide 3-8)"
  value-unit: "% ID/g*h"
  Tumor AUC: 110
- compound: "CC(=O)N[C@H](C(=O)NC(C)(C)C(=O)N[C@@H](Cc1ccccc1)C(=O)N[C@H]1CSSC[C@@H](C(=O)N[C@H](C(=O)N[C@H](C(=O)N2CCC(CC(=O)N[C@H](CCCCNC(=O)CC[C@H](C(=O)O)N3CCN(CC(=O)O)CCN(CC(=O)O)CCN(CC(=O)O)CC3)C(N)=O)CC2)[C@@H](C)O)C(C)(C)C)NC(=O)[C@H](CC(N)=O)NC(=O)C(C)(C)NC(=O)[C@H](CCCNC(=N)N)NC(=O)[C@H](CCCCN)NC1=O)[C@@H](C)O [PSM-0339] (Ac-T[Aib]FCKR[Aib]NC[Tle]T[X1][dK](X2)-NH2; disulfide 4-9)"
  value-unit: "% ID/g*h"
  Tumor AUC: 160
- compound: "C[C@@H](O)[C@H](NC(=O)[C@@H](NC(=O)[C@@H]1CSSC[C@H](NC(=O)[C@H](Cc2ccccc2)NC(=O)C(C)(C)NC(=O)[C@@H](NC(=O)CC2CCN(C(=O)CC[C@H](C(=O)O)N3CCN(CC(=O)O)CCN(CC(=O)O)CCN(CC(=O)O)CC3)CC2)[C@@H](C)O)C(=O)N[C@@H](CCCCN)C(=O)N[C@@H](CCCNC(=N)N)C(=O)NC(C)(C)C(=O)N[C@@H](CC(N)=O)C(=O)N1)C(C)(C)C)C(N)=O [PSM-0218] (X2-[X1]T[Aib]FCKR[Aib]NC[Tle]T-NH2; disulfide 5-10)"
  value-unit: "% ID/g*h"
  Tumor AUC: 150
- compound: "C[C@@H](O)[C@H](NC(=O)[C@@H](NC(=O)[C@@H]1CSSC[C@H](NC(=O)[C@H](Cc2ccc(Cl)cc2)NC(=O)C(C)(C)NC(=O)[C@@H](NC(=O)CC2CCN(C(=O)CN3CCN(CC(=O)O)CCN(CC(=O)O)CCN(CC(=O)O)CC3)CC2)[C@@H](C)O)C(=O)N[C@@H](CCCCN)C(=O)N[C@@H](CCCNC(N)=O)C(=O)NC(C)(C)C(=O)N[C@@H](CC(N)=O)C(=O)N1)C(C)(C)C)C(N)=O [PSM-0365] ({DOTA}-[X1]T[Aib][Phe(4-Cl)]CK[Cit][Aib]NC[Tle]T-NH2; disulfide 5-10)"
  value-unit: "% ID/g*h"
  Tumor AUC: 140

Prompt line: GET Tumor AUC where system = PC3-PIP tumor model and item = C[C@@H](O)[C@H](NC(=O)CC1CCN(C(=O)CN2CCN(CC(=O)O)CCN(CC(=O)O)CCN(CC(=O)O)CC2)CC1)C(=O)NC(C)(C)C(=O)N[C@@H](Cc1ccccc1)C(=O)N[C@H]1CSSC[C@@H](C(=O)N[C@H](C(N)=O)C(C)(C)C)NC(=O)[C@H](CC(N)=O)NC(=O)C(C)(C)NC(=O)[C@H](CCCNC(=N)N)NC(=O)[C@H](CCCCN)NC1=O [PSM-0361] ({DOTA}-[X1]T[Aib]FCKR[Aib]NC[Tle]-NH2; disulfide 5-10)
Response line: 110

// data source = patent US20260083865A1
